# MEASURED_TARGET: T1, full-length human PD1 expressed on NS1 cells (PD1-NS1) (human, UniProt Q15116 25-288)
# T1 construct: whole, on cells; also called surface-expressed PD1; PD1 expressing cell line
# T1 sequence (Q15116 25-288): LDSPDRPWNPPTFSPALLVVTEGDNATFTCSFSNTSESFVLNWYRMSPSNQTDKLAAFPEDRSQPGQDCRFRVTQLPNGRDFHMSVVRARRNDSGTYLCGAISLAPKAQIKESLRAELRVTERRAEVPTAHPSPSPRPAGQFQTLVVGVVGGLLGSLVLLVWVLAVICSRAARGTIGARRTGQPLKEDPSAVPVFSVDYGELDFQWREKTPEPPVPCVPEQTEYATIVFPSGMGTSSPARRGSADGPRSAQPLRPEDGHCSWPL
# ASSAY: FACS on PD1-NS1 cells, PE-anti-human kappa

BINDER: M2-4 (antibody, V domains shown, Expressed as human IgG4/kappa; 6xHis tag at the C-terminus of the Fc for ELISA) VH: QVQLVESGGDVVQPGGSLRLSCAASGVAFRNYGMHWVRQAPGKGLEWVAIIWYDGSNKYYADSVKGRFTISRDNSKNMLYLQMNSLRAEDTAMYYCARLSIGTTHYFDTDDYWGQGTSVTVSS VL: EIVLTQSPATLSLSPGERATLSCRASQSVSSYLAWYQQKVGQAPRLIIFDASNRATGIPARFSGSGSGTDFTLTITSLDPEDFAVYYCQQRSAWPLTFGGGTKVEIR
binding result: binds
//
BINDER: M2-2 (antibody, V domains shown, Expressed as human IgG4/kappa in 293F or Expi293 cells; also called 397-27-23) VH: QVQLVESGGDVVQPGGSLRLSCSASGLVISDYGMNWVRQAPGKGLEWVGLIWYDGSKKYYSDFVKGRFTISRDNSKNILYLQMNNLRAEDTAMYYCARFLIGATRRGNAMDYWGQGTSVTVSS VL: EVVLTQSPATLSLSPGERATLSCRASQSIDSDLAWSQQKPGQPPRLIIYDASNRATGIPARFSGSGSGTDFTLTISSLEPEDFAVYYCQQRSDWPLTFGGGTKVEIR
binding result: binds
